System: SK-MEL-2
assay_details: NCI tumour cell line growth inhibition, 48 h
Calls of active or inactive are those of the source. No stated cut-off is given here; in the data, active = GI50 up to about 1.1 µM and inactive = higher.
The categories you may choose from are true (1) (active), false (0) (inactive)

See these solved cases before continuing.
* COc1ccc(Cc2nc3cc([N+](=O)[O-])ccc3n2C[C@@H]2CCCN3CCCCC23)cc1 (stereo partly specified) | false (0)
* CCOC(=O)Cc1nc2cc(F)c(F)cc2[nH]c1=O | false (0)
* COCn1cnc2c(=O)n(-c3ccc(OC)cc3)c(=S)n(-c3ccc(OC)cc3)c21 | false (0)
* CCCCCCCCCCCCCCCC(=O)OC1C(O)C(CO)OC(OC)C1NC(=O)N(CCCl)N=O (stereo unspecified) | false (0)
* NC(=O)c1ncn(C2C=CC(CP(=O)(O)O)C2)c1N (stereo unspecified) | false (0)

[in] What did this assay record as the result for CN1CCN(C(=O)c2cn(Cc3cncn3Cc3ccc4c(c3)OCO4)cc2-c2cccc3ccccc23)CC1 ?
[out] true (1)

[in] What did this assay record as the result for CC(C)(Br)C(=O)C(Br)Br ?
[out] false (0)

[in] What did this assay record as the result for O=C1CN=C(c2ccccc2)c2ccncc2N1 ?
[out] false (0)

[in] What did this assay record as the result for CCc1nc2c(O)ccc(O)c2nc1C ?
[out] false (0)

[in] What did this assay record as the result for CN(C)CCNc1nc2c(no[n+]2[O-])c2ccccc12.[O-][Cl+3]([O-])([O-])O ?
[out] false (0)

[in] What did this assay record as the result for COc1ccc(-c2c3ccccc3c(-c3ccc(OCCCCCBr)cc3)c3ccccc23)cc1 ?
[out] false (0)

----------
System: NCI-H460
assay_details: NCI tumour cell line growth inhibition, 48 h
Calls of active or inactive are those of the source. Cut-off read from the data, not from the text of the source: active = GI50 up to about 1.1 µM and inactive = higher.
The categories you may choose from are active, inactive

• S=c1sscc1N1CCSc2ssc(=S)c21 = inactive

Here is another compound to look at.
[in] What did this assay record as the result for CCc1nc(N)nc(N)c1-c1ccc(N(C)Cc2ccccc2)c([N+](=O)[O-])c1 ?
[out] active

----------
System: OVCAR-3
assay_details: NCI tumour cell line growth inhibition, 48 h
Active and inactive are the calls of the source. Rule as the data show it: active = GI50 up to about 1.1 µM and inactive = higher.
The categories you may choose from are 1 (active), -1 (inactive)

See these solved cases before continuing.
- CCCOC1OC(CS(=O)(=O)O)C(OC(C)=O)C(OC(C)=O)C1OC(C)=O (centres undefined): -1
- COC(=O)C(=O)C(C(=O)C=C(C)C)C(=O)C(=O)Nc1cccc(C(C)=O)c1 (centres undefined): -1
- NS(=O)(=O)c1ccc(NNc2c3ccccc3nc3ccccc23)cc1: -1
- CNCCNc1ccc2c3c(nn2CCNCCO)-c2c(O)ccc(O)c2C(=O)c13: 1
- CN1CC(c2ccccc2)=CC2=C1C=CC(=N)/C2=N\N: -1
- COc1ccc(-c2c3ccccc3c(-c3ccc(OCCCCCBr)cc3)c3ccccc23)cc1: -1
- CCO/C([O-])=C(\C(=O)c1ccccc1)[n+]1c(C)sc2ccccc21: -1
- O=C1C2=C(CC3=C(C2)CS(=O)(=O)C3)C(=O)C2=C1CC1=C(C2)CS(=O)(=O)C1: -1

Here is another compound to look at.
[in] What did this assay record as the result for Nc1nc2c(ncn2C2CCC(CO)O2)c(=O)n1C(=O)c1ccccc1 (centres undefined) ?
[out] -1

----------
# GI50 per entry
Tested on: M14
assay_details: NCI tumour cell line growth inhibition, 48 h
Active and inactive are the calls of the source. Rule as the data show it: active = GI50 up to about 1.1 µM and inactive = higher. Where a SMILES comes first, the peptide text is derived from it. [ ]: non-standard residue; d: D form. The star is where a group is joined. NMeAc5c = CNC1(C(=O)O)CCCC1; Boc = CC(C)(C)OC(=O)*; OBn = c1ccc(CO*)cc1

Use these answered entries as a reference point.
* C#CCOCn1cnc2c(Sc3c([N+](=O)[O-])ncn3C)ncnc21 | > 100 µM (inactive)
* ClC1(Cl)C2CCOC21n1cnc2ccccc21 (stereo unspecified) | > 100 µM (inactive)
* CN1N=C(c2ccncc2)OC1c1cccc(C(F)(F)F)c1 (stereo unspecified) | > 100 µM (inactive)
* CCCCCCCCCCCCCCCC(=O)OC1C(O)C(CO)OC(OC)C1NC(=O)N(CCCl)N=O (stereo unspecified) | 18.4 µM (inactive)
* O=[N+]([O-])C(=C(Nc1ccccc1)Nc1ccccc1)/C(Cl)=C(\Cl)[N+](=O)[O-] | 4.75 µM (inactive)
* Nc1nc(-c2ccccc2)c(Cl)c(-c2cc(Cl)ccc2O)n1 | > 100 µM (inactive)

[in] What does the data say about its GI50? Entry: CN(C(=O)C(Cc1ccccc1)NC(=O)OC(C)(C)C)C1(C(=O)NC(Cc2ccccc2)C(=O)OCc2ccccc2)CCCC1 (stereo not drawn) (Boc-Phe-[NMeAc5c]-Phe-OBn; configuration not given here)
[out] 23.1 µM (inactive)

----------
Test system: 786-0
assay_details: NCI tumour cell line growth inhibition, 48 h
Active and inactive are the calls of the source. Cut-off read from the data, not from the text of the source: active = GI50 up to about 1.1 µM and inactive = higher.
# GI50 per entry

Use these answered entries as a reference point.
• CCCCCCNC(=O)c1cnc(Cl)cn1 = 26.1 µM (inactive)
• COc1ccc(-n2c(N)c(C#N)c(C#N)c2-c2ccccc2)cc1 = 45.3 µM (inactive)
• CC(=O)OC1C2CCC1C1C2N=NN1c1ccc([N+](=O)[O-])cc1 (stereo not given) = > 100 µM (inactive)

[in] What does the data say about its GI50? Entry: COc1cc(Oc2nc3cc(F)c(F)cc3nc2-c2ccccc2)cc(OC)c1OC
[out] 30.5 µM (inactive)

[in] What does the data say about its GI50? Entry: COC(=O)[C@H](Cc1ccccc1)NC(=O)NCCN(CCNC(=O)N[C@@H](Cc1ccccc1)C(=O)OC)C(=O)N[C@@H](Cc1ccccc1)C(=O)OC
[out] 19.5 µM (inactive)

----------
# GI50 per entry
System: SK-MEL-28
assay_details: NCI tumour cell line growth inhibition, 48 h
Active and inactive are the calls of the source. Rule as the data show it: active = GI50 up to about 1.1 µM and inactive = higher.

Use these answered entries as a reference point.
- CCN(CC)CCSc1c(C(C)=O)c(=O)n(-c2ccccc2)c(=S)n1-c1ccccc1: 10.5 µM (inactive)
- Oc1c(/N=N\c2ccccc2)c2cccc3ccc4cccc1c4c32: > 100 µM (inactive)
- CC(=O)Oc1ccc2c(c1)CC[C@@H]1C2CC[C@]2(C)C(=O)NC(=O)CC12 (stereo partly specified): > 100 µM (inactive)

[in] What does the data say about its GI50? Entry: CO/N=C1/c2sccc2[C@H](NC(=O)C(F)(F)F)[C@@H]1O
[out] > 100 µM (inactive)

[in] What does the data say about its GI50? Entry: CC(C)CC1C(=O)OC(C)(C)OC1=O
[out] > 100 µM (inactive)

[in] What does the data say about its GI50? Entry: Cc1c2cc[n+](C)cc2c(C)c2c1[nH]c1ccccc12
[out] 1.34 µM (inactive)

[in] What does the data say about its GI50? Entry: CCCCCCc1ccc(O)cc1O
[out] > 71.9 µM (inactive)

[in] What does the data say about its GI50? Entry: CC(C(=O)c1ccc(O)cc1)C1(O)C(=O)Nc2c(Cl)cc(Cl)cc21 (stereo unspecified)
[out] 31.1 µM (inactive)

[in] What does the data say about its GI50? Entry: NC1CCCCC1.O=C(CP(=O)(O)O)NC(CC(=O)OCc1ccccc1)C(=O)OCc1ccccc1 (stereo unspecified)
[out] > 100 µM (inactive)

[in] What does the data say about its GI50? Entry: C=C(C)[C@@H]1CC[C@@H](C)[C@](O)([C@@H]2C[C@@H]([C@H](COC(=O)c3ccccc3)OC(=O)c3ccccc3)OC2=O)C1
[out] > 100 µM (inactive)

[in] What does the data say about its GI50? Entry: Cc1cc(-n2nnc(C(=O)O)c2-c2ccccc2)c2ccc(Cl)cc2n1
[out] > 100 µM (inactive)

[in] What does the data say about its GI50? Entry: c1ccc2cc(NCNc3ccc4ccccc4c3)ccc2c1
[out] 34.8 µM (inactive)

[in] What does the data say about its GI50? Entry: COC(=O)C1CCCN1C(=O)C(Cc1cn(S(=O)(=O)c2ccc(C)cc2)cn1)NC(=O)OC(C)(C)C (stereo unspecified)
[out] > 100 µM (inactive)

[in] What does the data say about its GI50? Entry: COc1ccc2c(c1)NC1(CCN(CCCC(=O)c3ccc(F)cc3)CC1)N=N2
[out] 20 µM (inactive)

[in] What does the data say about its GI50? Entry: O=C1CC(c2c(-c3ccccc3)[nH]c3ccccc23)C(=O)N1 (stereo unspecified)
[out] > 100 µM (inactive)

[in] What does the data say about its GI50? Entry: CCC1(C)C=Cc2c(cc(O)c3c(=O)c4ccccc4n(C)c23)O1 (stereo unspecified)
[out] > 10 µM (inactive)

[in] What does the data say about its GI50? Entry: NCCC(=O)NC(Cc1c[nH]cn1)C(=O)O (stereo unspecified)
[out] > 100 µM (inactive)

[in] What does the data say about its GI50? Entry: O=C1CCCCCCCCCCC1CN(Cc1ccccc1)Cc1ccccc1 (stereo unspecified)
[out] 37.7 µM (inactive)

[in] What does the data say about its GI50? Entry: CC(=O)c1ccc2c3c1[C@@H]1O[C@@H]1c1cccc(c1-3)[C@@H]1O[C@H]21
[out] 3.5 µM (inactive)

[in] What does the data say about its GI50? Entry: COC(=O)C1(c2ccc(OC)cc2)NC(c2ccccc2)C2C(=O)N(c3ccc(OC)cc3)C(=O)C21 (stereo unspecified)
[out] > 100 µM (inactive)

[in] What does the data say about its GI50? Entry: C=CCSc1nc2c(N)ncnc2n1C1OC(CO)C(O)C1O (stereo unspecified)
[out] > 100 µM (inactive)
